Tested on: Bacillus subtilis
Test Description: cleaved RNA product abundance (RNA/gDNA barcode ratio) relative to median wild-type variant (ratio to wild type); higher = more accumulation of the downstream cleavage product
Condition Info: experiment (reporter, strain, medium): exp 8a: truncated aprE reporter, strain BJT201 with 2% xylose (RNase J1 expressed); cleavage site: glnRA (positions -5 to +31 mutated)

{"Polymer Sequence": "CGACATGTCCCGCTTCTTTCATTAATCCGTTAGCAACTGTTTTGCTATATACAGTTACCTTTTAAGAGGAGGAAT", "Target": "Bacillus subtilis", "cleaved RNA product abundance": 0.464}
{"Polymer Sequence": "CGACATGTCCCGCTTCTTTCATTAATCCGTTAGCAATTGTTTTGCTATATGCATTTACCTTTTAAGAGGAGGAAT", "Target": "Bacillus subtilis", "cleaved RNA product abundance": 0.232}
{"Polymer Sequence": "CGACATGTCCCGCTTCTTTCATTAATCCGTTAGCAACTGTTTTGCTATATACATTTACCATTTAAGAGGAGGAAT", "Target": "Bacillus subtilis", "cleaved RNA product abundance": 1.03}
{"Polymer Sequence": "CGACATGTCCCGCTTCTTTCATTAATCCGTTAGCAACTGTTTTGCTATTTACATTTAACTTTTAAGAGGAGGAAT", "Target": "Bacillus subtilis", "cleaved RNA product abundance": 0.208}
{"Polymer Sequence": "CGACATGTCCCGCTTCTTTCATTAATCCGTTAGCAACTGATTTGCTATATACATTTACTTTTTAAGAGGAGGAAT", "Target": "Bacillus subtilis", "cleaved RNA product abundance": 1.06}
{"Polymer Sequence": "CGACATGTCCCGCTTCTTTCATTAATCCGTTAGCAACTGTTTTGTTATATACATTTAACTTTTAAGAGGAGGAAT", "Target": "Bacillus subtilis", "cleaved RNA product abundance": 0.617}
{"Polymer Sequence": "CGACATGTCCCGCTTCTTTCATTAATCCGTTAGCAACTATTTTGCTATATACAATTACCTTTTAAGAGGAGGAAT", "Target": "Bacillus subtilis", "cleaved RNA product abundance": 1.98}
{"Polymer Sequence": "CGACATGTCCCGCTTCTTTCATTAATCCGTTAGCAACTGTTCTGCTATATACATTTACCTTTTAAGAGGAGGAAT", "Target": "Bacillus subtilis", "cleaved RNA product abundance": 0.446}
{"Polymer Sequence": "CGACATGTCCCGCTTCTTTCATTAATCCGTTAGCAACTATTTTGATATATACATTTACCTTTTAAGAGGAGGAAT", "Target": "Bacillus subtilis", "cleaved RNA product abundance": 0.503}
{"Polymer Sequence": "CGACATGTCCCGCTTCTTTCATTAATCCGTTAGCAATTGTTTTGCTATATAGATTTACCTTTTAAGAGGAGGAAT", "Target": "Bacillus subtilis", "cleaved RNA product abundance": 1.51}
{"Polymer Sequence": "CGACATGTCCCGCTTCTTTCATTAATCCGTTAGCAACTGTTTTGCTATATTTATTTACCTTTTAAGAGGAGGAAT", "Target": "Bacillus subtilis", "cleaved RNA product abundance": 0.495}
{"Polymer Sequence": "CGACATGTCCCGCTTCTTTCATTAATCCGTTAGCAACTGTTTGGCTATATACATTTACCTTTTAAGAGGAGGAAT", "Target": "Bacillus subtilis", "cleaved RNA product abundance": 0.493}
{"Polymer Sequence": "CGACATGTCCCGCTTCTTTCATTAATCCGTAAGCAACTGTTTTGCTATATACATTTATCTTTTAAGAGGAGGAAT", "Target": "Bacillus subtilis", "cleaved RNA product abundance": 0.536}
{"Polymer Sequence": "CGACATGTCCCGCTTCTTTCATTAATCCGTTATCAACTGTTTCGCTATATACATTTACCTTTTAAGAGGAGGAAT", "Target": "Bacillus subtilis", "cleaved RNA product abundance": 0.192}
{"Polymer Sequence": "CGACATGTCCCGCTTCTTTCATTAATGCGTTAGCAAATGTTTTGCTATATACATTTACCTTTTAAGAGGAGGAAT", "Target": "Bacillus subtilis", "cleaved RNA product abundance": 0.927}
